protocolDetails: ATG_PPRE_CIS: Attagene CIS-FACTORIAL HepG2 Assay for human Peroxisome Proliferator-activated Response Element (PPRE) (AID 2282958)
runParameters: HepG2 PPRE cis-element reporter, Attagene transcription factor profiling; actives raise or lower the signal
The source made the active and inactive calls. The calls were made as follows: active = hit-call score of the fitted dose curve at least 0.9, where 1 is the maximum; inactive = score below 0.9.
reportedMetric: AC50

Completed entries (count: 5):
molecule | AC50
CC1=CC[C@@H](C(C)(C)O)CC1 | inactive
C=C(C)CCCC(C)CCO (configuration not stated) | inactive
CC1(C)CC(N)CC(C)(CN)C1 (configuration not stated) | inactive
CCCCOC(=O)C(C)OC(=O)CCC (configuration not stated) | inactive
c1ccc(OCCOc2ccccc2)cc1 | 0.0167 µM (active)

Incoming: Could you tell me which AC50 is on file for CCc1cccc(O)c1 ?
Outgoing: inactive

Incoming: Reported AC50 for CC(CO)(CO)[N+](=O)[O-] : what is it?
Outgoing: inactive

Incoming: I am curious: what AC50 value has been reported for CC(C)(C)c1cc(CCC(=O)OCCSCCOC(=O)CCc2cc(C(C)(C)C)c(O)c(C(C)(C)C)c2)cc(C(C)(C)C)c1O ?
Outgoing: inactive

Incoming: Requested field: AC50. Item: CCOC(=O)COC(=O)c1ccccc1C(=O)OCC
Outgoing: inactive

Incoming: For the molecule shown here, Cc1ccccc1S , give the reported AC50.
Outgoing: inactive
